# Test system: Trypanosoma cruzi
# EXPERIMENT: Trypanosoma cruzi phosphomannomutase and mannose-1-phosphate guanylyltransferase assay
# Assay type: functional
# Set-up: scale not given: direction of the effect not stated beside the values
# EXPERIMENTAL_SETUP: 10 µM

SMILES_RECORD: O=C(Nc1cnn(CCN2CCOCC2)c1)c1cc(F)ccc1F
Percent Effect / %: -1.32
//
SMILES_RECORD: CC(C)(C)OC(=O)N1CCN(C(=O)c2sccc2C2CC2)CC1
Percent Effect / %: -2.56
//
SMILES_RECORD: CN(Cc1nnc2n1CCC2)C(=O)Cc1ccc2c(c1)OCCO2
Percent Effect / %: 4.25
//
SMILES_RECORD: CCc1nnc2n1CCN(C(=O)c1cc(Br)c[nH]1)C2
Percent Effect / %: 8.05
//
SMILES_RECORD: O=C1COc2cc(C(=O)NS(=O)(=O)c3ccccc3F)ccc2N1
Percent Effect / %: -3.46

###

Known Percent Effect of a selection of compounds
# TARGET_SYSTEM: Ubiquitin-activating enzyme e1, putative (Leishmania donovani (strain BPK282A1)) (UniProt E9BSI1)
# Sequence (E9BSI1 as listed by the source): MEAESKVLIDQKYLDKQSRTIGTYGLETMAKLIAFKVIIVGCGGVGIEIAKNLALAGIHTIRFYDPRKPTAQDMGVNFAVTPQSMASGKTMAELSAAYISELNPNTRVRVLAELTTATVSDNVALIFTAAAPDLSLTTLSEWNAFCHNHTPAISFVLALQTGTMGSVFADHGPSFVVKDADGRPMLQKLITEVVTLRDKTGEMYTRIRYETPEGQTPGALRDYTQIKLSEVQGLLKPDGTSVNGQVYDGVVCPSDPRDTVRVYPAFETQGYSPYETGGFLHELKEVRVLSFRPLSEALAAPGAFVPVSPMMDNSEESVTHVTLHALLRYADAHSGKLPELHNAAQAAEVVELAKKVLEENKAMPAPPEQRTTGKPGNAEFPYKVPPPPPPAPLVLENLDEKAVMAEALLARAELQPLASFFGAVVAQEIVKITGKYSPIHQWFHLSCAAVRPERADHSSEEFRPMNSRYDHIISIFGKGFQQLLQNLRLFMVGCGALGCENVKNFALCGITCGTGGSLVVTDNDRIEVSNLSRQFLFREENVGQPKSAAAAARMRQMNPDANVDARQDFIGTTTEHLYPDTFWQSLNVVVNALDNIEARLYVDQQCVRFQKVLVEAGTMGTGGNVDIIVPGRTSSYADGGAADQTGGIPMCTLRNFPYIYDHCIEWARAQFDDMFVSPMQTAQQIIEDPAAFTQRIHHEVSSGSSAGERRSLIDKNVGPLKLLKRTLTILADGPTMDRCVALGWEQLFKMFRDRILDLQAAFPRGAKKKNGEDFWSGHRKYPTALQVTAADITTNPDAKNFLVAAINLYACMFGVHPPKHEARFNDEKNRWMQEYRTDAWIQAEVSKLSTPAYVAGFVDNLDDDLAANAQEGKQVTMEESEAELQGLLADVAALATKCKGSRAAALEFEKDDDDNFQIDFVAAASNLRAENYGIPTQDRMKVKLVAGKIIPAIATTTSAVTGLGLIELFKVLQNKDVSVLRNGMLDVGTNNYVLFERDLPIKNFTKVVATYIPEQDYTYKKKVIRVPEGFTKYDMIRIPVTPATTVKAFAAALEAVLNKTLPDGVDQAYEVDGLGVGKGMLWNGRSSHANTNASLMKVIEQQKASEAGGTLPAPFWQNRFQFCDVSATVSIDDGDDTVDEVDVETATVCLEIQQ
# EXPERIMENT: Leishmania donovani Ubiquitin Activating Enzyme (LdE1)
# Type: functional
# Set-up: scale not given: direction of the effect not stated beside the values
# EXPERIMENTAL_SETUP: 30 µM
Results with a measured potency or affinity are listed apart.

COMPOUND: CSCc1cccc(S(=O)(=O)N2CCC(C)CC2)c1
UOM: %
Percent Effect: -4
--
COMPOUND: CNC(=O)CCc1cc(C)nc(C2CCCN2)n1 (stereo not given)
UOM: %
Percent Effect: -1.35
--
COMPOUND: CCn1nc(CNC(=O)C2CC(=O)N(C3CCCC3)C2)c2ccccc21 (stereo not given)
UOM: %
Percent Effect: 2.7
--
COMPOUND: Cc1nc(CN2CCOC(Cn3cncn3)C2)nc2ccccc12 (stereo not given)
UOM: %
Percent Effect: -2.6
--
COMPOUND: Cc1nccn1C1CCCN(C(=O)c2ccc3c(c2)nnn3C)C1 (stereo not given)
UOM: %
Percent Effect: 10.5
--
COMPOUND: COc1ccc(C2C3=C(COC3=O)Nc3[nH]nc(C)c32)cc1OC (stereo not given)
UOM: %
Percent Effect: 6.67
--
COMPOUND: COCC1c2c(cnn2C)CCN1Cc1ccoc1 (stereo not given)
UOM: %
Percent Effect: -2.7
--
COMPOUND: COC(=O)C(NC(=O)c1ccco1)c1cc(F)ccc1F (stereo not given)
UOM: %
Percent Effect: 5.2
--
COMPOUND: CN(C)C(=O)Cc1ccc(NC(=O)NC2CCCCC2)cc1
UOM: %
Percent Effect: -5.41
--
COMPOUND: COc1ccc(C(=O)N2CCC(Nc3ccc(C)nn3)CC2)c(F)c1
UOM: %
Percent Effect: 1.27
--
COMPOUND: NC(=O)C1CCN(c2nc3nccc(-c4ccccn4)c3c(=O)[nH]2)CC1
UOM: %
Percent Effect: 18.4
--
COMPOUND: Cn1ncc2c1CCCC2NCc1ccc(Cl)s1 (stereo not given)
UOM: %
Percent Effect: 13
--
COMPOUND: CCn1c(CN(C)C)nnc1C1CCN(Cc2cccc(OC)c2)CC1
UOM: %
Percent Effect: 10.4
--
COMPOUND: CS(=O)(=O)N1CCCC12CCCN(S(=O)(=O)c1ccc(F)cc1)C2 (stereo not given)
UOM: %
Percent Effect: 5.41
--
COMPOUND: CCN1CCN(C2CCN(Cc3noc(C)n3)CC2)C1=O
UOM: %
Percent Effect: 25.3
--
COMPOUND: CCc1nc2n(n1)CC(NCC(=O)Nc1nccs1)CC2 (stereo not given)
UOM: %
Percent Effect: -2.53
--
COMPOUND: O=C(c1ccco1)N1CCCC1C1CCN(Cc2ccccc2)CC1 (stereo not given)
UOM: %
Percent Effect: 7.89
--
COMPOUND: O=C(c1cnccn1)N1CCN2C[C@H](OCc3ccccn3)C[C@H]2C1
UOM: %
Percent Effect: 0
--
COMPOUND: CC(=O)N1CCC(c2nccnc2Oc2ccccc2)CC1
UOM: %
Percent Effect: 4.05
--
COMPOUND: CN(C)C(=O)CC1CC2(CCN(C(=O)N(C)C)CC2)Oc2ccccc21 (stereo not given)
UOM: %
Percent Effect: 8.11
--
COMPOUND: Cc1ncsc1C(=O)Nc1cccc(OCC(F)F)n1
UOM: %
Percent Effect: 2.63
--
COMPOUND: O=C(NCc1nnc2n1CCCCC2)N1CCc2sccc2C1
UOM: %
Percent Effect: 16.5
--
COMPOUND: CNS(=O)(=O)c1cccc(CNc2nccc(C(F)(F)F)n2)c1
UOM: %
Percent Effect: 16.2
--
COMPOUND: Cc1cc(C)cc(NC(=O)CN2CCCC(n3cncn3)C2)c1 (stereo not given)
UOM: %
Percent Effect: 8.11
--
COMPOUND: O=C(CN1CCC(c2cccc(F)c2)C1)NCc1ccco1 (stereo not given)
UOM: %
Percent Effect: 21.1
--
COMPOUND: COCc1nc2n(n1)CCCC2Nc1nc(C2CC2)ns1 (stereo not given)
UOM: %
Percent Effect: 5.33
--
COMPOUND: Cc1cc(CN2CCN(C(C)c3nc(C4CC4)no3)CC2)no1 (stereo not given)
UOM: %
Percent Effect: 8.86
--
COMPOUND: COc1ccc(C(=O)N2CCCC(C)C2)cc1F (stereo not given)
UOM: %
Percent Effect: 24.3
--
COMPOUND: Cc1noc(CCCC(=O)NC(C)c2cccnc2)n1 (stereo not given)
UOM: %
Percent Effect: 13.2
--
COMPOUND: O=C(c1ccn[nH]1)N1CCCC(n2cncn2)C1 (stereo not given)
UOM: %
Percent Effect: 11.4
--
COMPOUND: CN1CCOC(CNCc2nc(-c3ccccc3)cs2)C1 (stereo not given)
UOM: %
Percent Effect: -12.7
--
COMPOUND: Cc1cnn(CCNCc2ccc(OCC(N)=O)cc2)c1
UOM: %
Percent Effect: 5.33
--
COMPOUND: CC(=O)c1cn(CCC(=O)N[C@H](C(=O)O)C(C)C)c2ccccc12
UOM: %
Percent Effect: 12
--
COMPOUND: CC(C)NC(=O)Cn1cc(-c2ccccc2)cn1
UOM: %
Percent Effect: 6.33
--
COMPOUND: CCC1CN(Cc2ccccc2)CCN1Cc1nnc(C2CCC2)o1 (stereo not given)
UOM: %
Percent Effect: 2.74
--
COMPOUND: Cc1cnn(CC2CCCN2CCCc2nc3ccccc3o2)c1 (stereo not given)
UOM: %
Percent Effect: 13.5
--
COMPOUND: COc1ccc(C)cc1S(=O)(=O)NCC(c1cccn1C)N(C)C (stereo not given)
UOM: %
Percent Effect: 8.22
--
COMPOUND: O=C1CC(c2ccccc2)C2(CCN(CC3CC3)CC2)N1 (stereo not given)
UOM: %
Percent Effect: 10.7
--
COMPOUND: Cc1ncccc1Oc1nccnc1C1CCN(C(C)C)CC1
UOM: %
Percent Effect: 6.76
--
COMPOUND: CN(CCc1ccccc1)c1cnn(CC(=O)N2CCSCC2)c(=O)c1
UOM: %
Percent Effect: 0
--
COMPOUND: Cc1noc(Cl)c1CCC(=O)N1CCN(c2ncccn2)CC1
UOM: %
Percent Effect: 10.5
--
COMPOUND: Cc1nc(C)n(CC2CCCCN2CC(=O)N(C)Cc2ccco2)n1 (stereo not given)
UOM: %
Percent Effect: 0
--
COMPOUND: CN1CC(=O)N(c2ccccc2)CC12CCN(Cc1nccs1)C2 (stereo not given)
UOM: %
Percent Effect: 5.33
--
COMPOUND: CCOCC1CN(S(=O)(=O)N(C)C)Cc2cnn(C)c21 (stereo not given)
UOM: %
Percent Effect: 5.48
--
COMPOUND: CN(C)c1ccc(CNc2cncc(-n3cccn3)n2)cc1
UOM: %
Percent Effect: 5.2

###

# TARGET_SYSTEM: Sialic acid-binding Ig-like lectin 9 (Homo sapiens)
# EXPERIMENT: Hs-Siglec9 ALPHAscreen SOP 20170721
# Parameters: scale not given: direction of the effect not stated beside the values
# EXPERIMENTAL_SETUP: 10 µM

MOLECULE: CC(C)(C)n1cc(C(=O)N2CCN(Cc3ccccc3F)CC2)cn1
UOM: %
Percent Effect: 8.67
//
MOLECULE: c1cnn(Cc2cn3c(n2)CN(Cc2nccs2)CC3)c1
UOM: %
Percent Effect: -1.53
//
MOLECULE: CCn1cc(CN2CCCN(C(=O)c3ccn(C)c(=O)c3)CC2)cn1
UOM: %
Percent Effect: -17.4
//
MOLECULE: CN(C(=O)c1cc(Cl)c[nH]1)C1CCN(c2ccccn2)CC1
UOM: %
Percent Effect: -14.5
//
MOLECULE: COc1ccc(C2Nc3ccccc3C3=NCCCN32)cc1OC (configuration not stated)
UOM: %
Percent Effect: -1.83
//
MOLECULE: COCCNC(=O)c1sc(Nc2ccc(Cl)cn2)nc1C
UOM: %
Percent Effect: 6.95
//
MOLECULE: CN(C)C(=O)[C@H]1C[C@@H]2CCN(C3CCOCC3)C[C@H]2O1
UOM: %
Percent Effect: -3.17
//
MOLECULE: CN1CCC(CCNC(=O)c2ccc(N(C)S(C)(=O)=O)cc2Cl)CC1
UOM: %
Percent Effect: 0.479
//
MOLECULE: CCc1nnc2n1CCN(C(=O)Cc1csc(-c3ccco3)n1)C2
UOM: %
Percent Effect: 9.4
//
MOLECULE: O=C(c1cccc2c1OCCO2)N1CCCC(n2ccnc2)C1 (configuration not stated)
UOM: %
Percent Effect: -0.188
//
MOLECULE: Cc1nn(C)c(C)c1C1CCCN1CC(=O)NC(C1CC1)C1CC1 (configuration not stated)
UOM: %
Percent Effect: 11.2
//
MOLECULE: O=C(CS(=O)(=O)CC1CCCCC1)NC1CCCCNC1=O (configuration not stated)
UOM: %
Percent Effect: 5.38
//
MOLECULE: O=C(CCCc1cn[nH]c1)N1CCOCC(O)C1 (configuration not stated)
UOM: %
Percent Effect: -7.04
//
MOLECULE: CCC(NC(=O)C1CCN(S(C)(=O)=O)CC1)c1ccc(OC)c(OC)c1 (configuration not stated)
UOM: %
Percent Effect: -1.28
//
MOLECULE: Cc1cccc(Cn2ccc(NS(C)(=O)=O)n2)c1
UOM: %
Percent Effect: 7.5
//
MOLECULE: CN(C)c1cncc(C2CCN(CCO)CC2)n1
UOM: %
Percent Effect: -1.62
//
MOLECULE: O=C1[C@H]2CC[C@H](CN(S(=O)(=O)c3ccccc3)C2)N1Cc1cscn1
UOM: %
Percent Effect: -0.832
//
MOLECULE: N#Cc1ccc(OCCCN2CCc3cncnc3C2)cc1
UOM: %
Percent Effect: 5.6
//
MOLECULE: CCn1cc(NC(=O)NCC2(N3CCOCC3)CCSC2)cn1 (configuration not stated)
UOM: %
Percent Effect: 16.6
//
MOLECULE: Cc1cccc(-c2nc(CN(Cc3cccs3)CC3CCCO3)no2)c1 (configuration not stated)
UOM: %
Percent Effect: -0.778
//
MOLECULE: CS(=O)(=O)N1CCCC12CCCN(S(=O)(=O)c1cc(F)cc(F)c1)C2 (configuration not stated)
UOM: %
Percent Effect: -10
//
MOLECULE: O=C1CC(c2ccccc2)C2(CCN(CC3CC3)CC2)N1 (configuration not stated)
UOM: %
Percent Effect: -1.87
